src = patent US7118895B2

# System: Crude diglycosidase
# assay-name: Examination of temperature in the conversion into isoflavone aglycons by diglycosidase using soybean materials
# Assay type: biochemical, Penicillium multicolor IAM7153
# Design: concentration or dose not given beside the values
# test-conditions: 45 °C; heat treatment of enzyme: no; 3 h
Measured Decomposition efficiency of daidzin family in soymilk accompanies every entry in the list below.
metric: Decomposition efficiency of daidzin family in soymilk (%)

{"compound": "O=C(O)CC(=O)OC[C@H]1O[C@@H](Oc2ccc3c(=O)c(-c4ccc(O)cc4)coc3c2)[C@H](O)[C@@H](O)[C@@H]1O [malonyldaidzin, 6″-O-malonyldaidzin]", "data-value": 41.1}
{"compound": "O=c1c(-c2ccc(O)cc2)coc2cc(O)ccc12 [daidzein]", "data-value": 52.0}
{"compound": "O=c1c(-c2ccc(O)cc2)coc2cc(O[C@@H]3O[C@H](CO)[C@@H](O)[C@H](O)[C@H]3O)ccc12 [daidzin]", "data-value": 6.9}
